The measured values listed here are drawn from the EternaBench riboswitch data.

Tested on: MS2 coat protein
Assay: apparent Kd, MS2 coat protein; higher = weaker binding; RNA-MaP array; FMN 200 µM where present
Conditions: ligand present: flavin mononucleotide; designed as: OFF switch for flavin mononucleotide
Response key: YES means apparent Kd >= 30 nM; NO means apparent Kd < 30 nM.

Inquiry: Kindly determine if apparent Kd recorded for `UGUCGGAGCAGAGGAUAUUACAUGAGGAUCACCCAUGUAUGAAACAAUAGCUGGAAACAGCAAUGUAAGAAGGCUGCUCCGACA` is above or exactly 30 nM.
Reply text: NO

Inquiry: Assess whether reported apparent Kd for `AAUUUACAUGAGGAUCACCCAUGUGAGGAUAUGAUACUAUGUACUUCGGUACAUAGUAUCAGAAGGCAUGUGGA` sits at 30 nM or higher.
Reply text: YES

Inquiry: Given `GCAGCUAAUGCAGGAUAUCAGCACGUGUAGUGCUGAGAAGGGCACAUGAGGAUCACCCAUGUGAUCAAUUAAUGUUAAUGCUGC` , state whether its apparent Kd is at least 30 nM.
Reply text: YES

Inquiry: Could you tell me if the measured apparent Kd of `CGCAGCGCAGGAUAUACAUGAGGAUCACCCAUGUACUGGCUCGGCACAGGGUCUCAAGGUAGAAGGGUGCAAAU` reaches 30 nM or more?
Reply text: NO

Inquiry: Please check the record `AACUUGUCAGGAUAUCUUACAUUUGCAUCUUAGUUACCAUUGGAGAAGGGACAUGAGGAUCACCCAUGUUUGGU` and state if its apparent Kd is at or above 30 nM.
Reply text: YES

Inquiry: Could you please find out whether `GCUAGGAAUGUCAGGAUAUGCAGAACCUUGGUUCUGCAGAAGGGACAUGAGGAUCACCCAUGUGCUAACCUAGC` has apparent Kd that meets 30 nM or exceeds it?
Reply text: YES

Inquiry: I'd appreciate it if you could say whether `UCAAGUAUGUAGGAUAUCGAUGUCUGCGGACAUCGAGAAGGACGUACAUGAGGAUCACCCAUGUAACUUGCAUG` has apparent Kd at least equal to 30 nM.
Reply text: YES

###

System: MS2 coat protein
Test: apparent Kd, MS2 coat protein; higher = weaker binding; RNA-MaP array; FMN 200 µM where present
Conditions: designed as: ON switch for flavin mononucleotide; no ligand
apparent Kd below 200 nM gives no (0); apparent Kd at or above it gives yes (1).

Inquiry: Test whether the sequence `GCCAUCGUAUGAGGAUAUGGCACCGAAACGGUGCCAGAAGGCAUGUCAAUAGACAUGAGGAUCACCCAUGUGUUAUCGAUGGCA` records apparent Kd of 200 nM or higher.
Reply text: yes (1)

Inquiry: Say whether `AAUAAACUCACAGGAUAUAGCAUAAGUCGCGUGAACUUACAGGCGACUAUGCUAGAAGGGUGACCACAUGAGGAUCACCCAUGU` shows apparent Kd of 200 nM or more.
Reply text: yes (1)

Inquiry: Form field: apparent Kd at least 200 nM? Entry: `GUAGCAUACCGAGGAUAUUCAGGGCGUAAAUAAACAUGAGGAUCACCCAUGUGGCGAAAGCCUAGGGAGAAGGCGGAAUGCUAC`
Reply text: no (0)

Inquiry: Confirm if apparent Kd reported for the sequence `GCGUAACAUGAGGAUCACCCAUGUGCCCGAGAAUUCGGGCCGAGAAGGGUGACCGGACGUAUGGCACAGGAUAUCGACGUUUUG` is 200 nM or above.
Reply text: no (0)

Inquiry: Does the reported apparent Kd for `GCUGGGUAGGCAGGAUAUCCUCGCGCAAACACAUGAGGAUCACCCAUGUACACAAAACGUGAUAUGGAGAAGGGCCGACCCACA` fall at or above the 200 nM mark?
Reply text: no (0)

Inquiry: Hi team, for `UCACUCAAGUUAGGAUAUGGAUCGGAAAACGAUCCAGAAGGAACAUGGGAACAUGAGGAUCACCCAUGUUCCAGAAACGAGUGA` , is the recorded apparent Kd at or above 200 nM?
Reply text: yes (1)

Inquiry: Tell me whether apparent Kd is at least 200 nM here: `GCCAUCGCAUGAGGAUAUGCUCCGGUUUCCGGAGCAGAAGGCAUGUAAUAAGACAUGAGGAUCACCCAUGUAGUUAAGAUGGCA`
Reply text: no (0)

Inquiry: apparent Kd >= 200 nM for `UUUAUAAGAAAAUAAACGAAGUGGCCAGAAGGUGAAUGCCACAUGAGGAUCACCCAUGUUUCGAUCAAGGAUAUGGUUUCUCAC` ?
Reply text: yes (1)

Inquiry: Quick check, apparent Kd >= 200 nM? `UGGUACUAGGGAGGAUAUGGGAAGAUACAUGAGGAUCACCCAUGUUUAAGAAUGCCGAGAGGCAACUAGAAGGCCCUAGUACUU`
Reply text: yes (1)

Inquiry: Reported apparent Kd reaches at least 200 nM for `GUGCCUUGGGAGAAGGUUAUUGGCAAAGCUAUUAAAGGAUAUUCAUACCGGAAACGGACAUGAGGAUCACCCAUGUGGCACAAA` ?
Reply text: yes (1)

Inquiry: Does apparent Kd meet or surpass 200 nM for `CGCUGUUGCGCAGGAUAUGCAUUGGAUUACAAUGCAGAAGGGCGAUUACAUGAGGAUCACCCAUGUGUAGACAGUGAAGAAGAG` ?
Reply text: yes (1)

Inquiry: # bool: apparent Kd of `UUGCCUCAGAACAUGAGGAUCACCCAUGUGCUGCGGGCAACGUAGGAUAUGAUGGCGUGACGCCAUCAGAAGGAUGAUGGUACC` >= 200 nM
Reply text: no (0)

Inquiry: Has `GUGGUUGUCGUAGGAUAUGUAGGAUAUUCCUACAUGAGGAUCACCCAUGUUCGCAUGGAAGAAUGACAGAAGGACGAUGACCAU` a recorded apparent Kd greater than or equal to 200 nM?
Reply text: yes (1)

Inquiry: I'd appreciate it if you could say whether `GAGUAGUUGAAAGGAUAUUGAUUGUUAUAGAAUCAAGAAGGUUCUAACAUGAGGAUCACCCAUGUAGGACUAUUCCUGUGUAUC` has apparent Kd at least equal to 200 nM.
Reply text: no (0)

Inquiry: Determine whether measured apparent Kd meets or exceeds 200 nM for `UUUCGGCUCGAGAAGGUCUAUCGACAUGAGGAUCACCCAUGUUGCCAUGGAAGGAUAUCGAAGGCAGCACGGGAAAUAGUCCGG`
Reply text: no (0)

Inquiry: Say whether `UUUGGGUGGCUGGAGGAUAUUCGAGUGGUUACAUGAGGAUCACCCAUGUGUCGCGCGGUACACGAGGAGAAGGCUGGCGGCCGUU` shows apparent Kd of 200 nM or more.
Reply text: no (0)

Inquiry: Record `GGGUACAUCGGAGGAUAUCAUGUAAAUACAUGAGGAUCACCCAUGUCGAUGGAGACAUCGGAGAUUGAGAAGGCCGAUGGACCG` ; criterion: apparent Kd no lower than 200 nM. Met?
Reply text: no (0)

Inquiry: Evaluate `UAAAUACAUGAGGAUCACCCAUGUCAAAAGACAUGAGGAUAUGUACAGACUUCGGUCUGUACAGAAGGCAUGAAUA` : apparent Kd at minimum 200 nM?
Reply text: yes (1)

Inquiry: I'd appreciate it if you could say whether `GGUGCACGCACAGGAUAUCCGGCGGCGCUCGUCGGAGAAGGGUGACAUGAGGAUCACCCAUGUACGUGCAACUCAGUUUGAGUG` has apparent Kd at least equal to 200 nM.
Reply text: no (0)

Inquiry: Determine whether measured apparent Kd meets or exceeds 200 nM for `CUUUUAUAAUAGAAGGUAGACUUCAUGAGGAUCACCCAUGUGUUGGUACUAAGGAUAUGUAGUAACAUGAGGAUCACCCAUGUU`
Reply text: no (0)

Inquiry: I'd appreciate it if you could say whether `AAAAAACAUGAGGAUCACCCAUGUAAAAAUAUGGGAGGAUAUUCAAACACGAAAGUGAAAGAAGAAGGCCUAAAAA` has apparent Kd at least equal to 200 nM.
Reply text: no (0)

Inquiry: Form field: apparent Kd at least 200 nM? Entry: `UUAUACAUUCGAGGAUAUCGGUGAGAAAUCUUUCGAGAAGGCGAUUCAUGAUUUAUUAUCCUGGACAUGAGGAUCACCCAUGUA`
Reply text: no (0)

Inquiry: Is apparent Kd for `GGAUAUAUACAGGAGGAUAUGAGAACAAAGACAUGAGGAUCACCCAUGUACAAAAGGUGGAACAAUCAGAAGGUCUAAACAACAAA` at or above 200 nM?
Reply text: no (0)

Inquiry: Given the entry `GUAGCAUACCGAGGAUAUUCAGGGCGUGGAUAGACAUGAGGAUCACCCAUGUGGCGAAAGCCUAGGGAGAAGGCGGAAUGCUAC` , answer whether its apparent Kd meets or surpasses 200 nM.
Reply text: no (0)
